- System: HCT-116
- measurement_protocol: Cytotoxicity against human HCT116 cells assessed as growth inhibition after 48 hrs by sulphorhodamine B assay
- Type: functional, cell-based
- experimental_conditions: HCT-116, 48 h
pIC50: −log10 of the molar value.
Classify by measured pIC50: 1.0 if it is equal to or exceeds 5, 0.0 if it is smaller.

COc1ccc(SC[C@@H]2C(=O)O[C@@H]3C4=C(C)C(=O)C=C[C@]4(C)CC[C@@H]23)cc1
0.0
CC1=C2[C@H]3OC(=O)[C@@H](CSc4ccccc4F)[C@@H]3CC[C@@]2(C)C=CC1=O
1.0
CC1=C2[C@H]3OC(=O)[C@@H](CSC4CCCCC4)[C@@H]3CC[C@@]2(C)C=CC1=O
0.0
CC1=C2[C@H]3OC(=O)[C@@H](CSc4ncc[nH]4)[C@@H]3CC[C@@]2(C)C=CC1=O
1.0
CC1=C2[C@H]3OC(=O)[C@@H](CSc4ccccc4)[C@@H]3CC[C@@]2(C)C=CC1=O
0.0
CC1=C2[C@H]3OC(=O)[C@@H](CSc4nc5ccccc5c(=O)[nH]4)[C@@H]3CC[C@@]2(C)C=CC1=O
0.0

----------
A collection of compounds and their measured pIC50
- Test system: A549
- measurement_protocol: Cytotoxicity against human A549 cells assessed as growth inhibition after 48 hrs by sulphorhodamine B assay
- Type: functional, cell-based
- experimental_conditions: A549, 48 h
pIC50: −log10 of the molar value.
reported_property: pIC50

CC1=C2[C@H]3OC(=O)[C@@H](CSc4ccccc4Cl)[C@@H]3CC[C@@]2(C)C=CC1=O
5.18
COc1ccc(SC[C@@H]2C(=O)O[C@@H]3C4=C(C)C(=O)C=C[C@]4(C)CC[C@@H]23)cc1
5.05
CC1=C2[C@H]3OC(=O)[C@@H](CSc4ccccc4C)[C@@H]3CC[C@@]2(C)C=CC1=O
6.05
CC1=C2[C@H]3OC(=O)[C@@H](CSc4ccc(F)c(F)c4)[C@@H]3CC[C@@]2(C)C=CC1=O
5.23
CC1=C2[C@H]3OC(=O)[C@@H](CSc4ccccc4F)[C@@H]3CC[C@@]2(C)C=CC1=O
5.74
CC1=C2[C@H]3OC(=O)[C@@H](CSc4ccc(C)c(Br)c4)[C@@H]3CC[C@@]2(C)C=CC1=O
5.39
CC1=C2[C@H]3OC(=O)[C@@H](CSc4ccccc4)[C@@H]3CC[C@@]2(C)C=CC1=O
4.70

----------
- Tested on: HCT-116
- measurement_protocol: Cytotoxicity against human HCT116 cells assessed as growth inhibition after 48 hrs by sulphorhodamine B assay
- Type: functional, cell-based
- experimental_conditions: HCT-116, 48 h
pIC50: −log10 of the molar value.
A collection of compounds and their measured pIC50
reported_property: pIC50

CC1=C2[C@H]3OC(=O)[C@@H](CSc4ccc(F)c(F)c4)[C@@H]3CC[C@@]2(C)C=CC1=O
6.15
CC1=C2[C@H]3OC(=O)[C@@H](CSc4ccccn4)[C@@H]3CC[C@@]2(C)C=CC1=O
6.30
C=C1C(=O)O[C@@H]2C3=C(C)C(=O)C=C[C@]3(C)CC[C@@H]12
4.50
CC1=C2[C@H]3OC(=O)[C@@H](CSc4ccccc4Br)[C@@H]3CC[C@@]2(C)C=CC1=O
5.96
